Some variants, each annotated with its measured self-cleavage.
B1: CPEB3 Ribozyme (parent)
chain: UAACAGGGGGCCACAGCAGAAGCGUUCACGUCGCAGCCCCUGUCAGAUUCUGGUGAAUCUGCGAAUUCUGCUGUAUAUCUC

Variants of: B1
Assay: self-cleavage, relative activity (ratio to wild type); higher = more cleavage; in vitro, sequencing
The answer should be a number; do not append a unit.

{"sequence.code": "UAACAGGGGGCCACAGCAGAAGCGUACACGUCGCAGCCCCUGUCAGAUUCUGGUGAAUCUGGGAAUUCUGCUGUAUAUCUC [U26A C62G]", "experimental.value": 0.2}
{"sequence.code": "UAACAGGGGGCCACAGCAGAAGCGUUCACGUCGCAGCCCCGGUCAGAUUCUGGUGAAUCUGCGAAUCCUGCUGUAUAUCUC [U41G U67C]", "experimental.value": 0.17}
{"sequence.code": "UAACAGGGGGCCACAGCAGAAGCCUUCACGUCGCAGCCCCUGUCAGAUUCUGGUGAAUCUGCGAAUUCUGCAGUAUAUCUC [G24C U72A]", "experimental.value": 0.19}
{"sequence.code": "UAACAGGGGGCCACACCAGAAGCGUUCACGUCGCAGCCCCUGUCAGAUUCUGGUGAGUCUGCGAAUUCUGCUGUAUAUCUC [G16C A57G]", "experimental.value": 0.57}

Query variant follows.
Asked: Returns the measured self-cleavage for the input variant. Input: UAACAGGGGGCCACAGCAGAAGCGUUCACGUCGCAGACCCUGUCAGAUUCUGGUGAAUCCGCGAAUUCUGCUGUAUAUCUC [C37A U60C]
Given back: 0.09
